# Tested on: SK-MEL-28 human melanoma cells
# experimental-details: Polyamine pools and analog accumulation in SK-MEL-28 cells
# Assay type: cell-based
# measurement-context: SK-MEL-28 cells, 24 hours, Table 4
# Protocol: MALME-3M human melanoma cells were cultured as described in Example 1 and treated with 10 μM DENSPM or 10 μM spermine (SPM) as described in Example 4. […] After treatment with DENSPM or spermine, biochemical parameters including polyamine enzymes activity, polyamine pools and analog accumulation were monitored as described by Kramer et al, J. Biol. Chem., 270:2124-32 (1995) and Kramer et al., Cancer Res., 57:5521-5527 (1997). […] Enzyme activity and polyamine pools were measured as described in Example 5.
Field: Polyamine Pools, Spm. Provide a value for each of the compounds that follow.
Answers are plain numbers, in pmol/10^6 cells.

Solved entries:
compound: CCNCCCNCCCNCCCNCC [DENSPM, N^1,N^11-diethylnorspermine]
unit-spec: pmol/10^6 cells
value-observed: 190
--
compound: CCNCCCCNCCCCNCCCCNCC [DE-444, N^1,N^14-diethylhomospermine]
unit-spec: pmol/10^6 cells
value-observed: 1015

I need Polyamine Pools, Spm for every entry listed below, if you could help.
1. CCNCCCCNCCCCNCCCNCC [DE-443, 3,7,12,17-tetraazanonadecane]
2. CCNCCCNCCCCNCCCNCC [DE-343, N^1,N^12-diethylspermine]

[500, 200]
